Consider the following variants; for each one, report its protein stability index.
B1: KLHDC10 (parent)
chain: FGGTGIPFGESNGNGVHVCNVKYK

# Variants of: B1
# Test protocol: protein stability index of a GFP-peptide fusion (GPS, HEK-293T) (PSI 1-6); higher = more stable;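 note: lentivirally expressed fusions sorted by FACS into six bins by GFP to DsRed ratio, PSI derived from sequencing read proportions per bin multiplied by bin number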
# Condition: c terminus: a fixed tail appended
Write the number on its own, no unit after it.

Requested read-out: protein stability index. Entry: FGGTGINFGESNGNGVHVCNVKYK [P7N]
2.4

Requested read-out: protein stability index. Entry: FGGTGIPFGESNGNGVAVCNVKYK [H17A]
1.92

Requested read-out: protein stability index. Entry: FGGTGIQFGESNGNGVHVCNVKYK [P7Q]
2.06

Requested read-out: protein stability index. Entry: FGGTGAPFGESNGNGVHVCNVKYK [I6A]
2.1

Requested read-out: protein stability index. Entry: FIGTGIPFGESNGNGVHVCNVKYK [G2I]
2.14

Requested read-out: protein stability index. Entry: FGGTGIPFGESNGNGVHVCNLKYK [V21L]
1.58

Requested read-out: protein stability index. Entry: FGGTGIPFGESNGNGVHRCNVKYK [V18R]
2.03

Requested read-out: protein stability index. Entry: FSGTGIPFGESNGNGVHVCNVKYK [G2S]
2.11

Requested read-out: protein stability index. Entry: FGGTGIEFGESNGNGVHVCNVKYK [P7E]
2.44

Requested read-out: protein stability index. Entry: FGGTGIPFGESNGNGVHCCNVKYK [V18C]
2.06

Requested read-out: protein stability index. Entry: FGWTGIPFGESNGNGVHVCNVKYK [G3W]
1.42

Requested read-out: protein stability index. Entry: FGGTGIPFGESNGEGVHVCNVKYK [N14E]
2.47

Requested read-out: protein stability index. Entry: FGGTGIPHGESNGNGVHVCNVKYK [F8H]
2.65
